# key: entry, value: melting point
Observable: melting point

* CC1(C)CC(=O)c2c(-c3ccccc3)sc(C#N)c2C1 | 100 to 103 °C
* CCCCc1oc2ccccc2c1-c1ncc(-c2ccc3cc(OCc4ccc(C(=O)OC)cc4)ccc3c2)o1 | 169 to 170 °C
* O=C(CBr)Nc1cccc(OC(=O)CBr)c1 | 96 to 98 °C
* Nc1nc2c(c(Nc3ccccc3)n1)-c1ccccc1C2 | 215 to 217 °C
* COc1cc(C(C)=O)ccc1OCCCN1CCC(c2nsc3ccccc23)CC1 | 93 to 95 °C
* CC(C)(C)c1ccc(-c2nc3ccc(C(=O)O)cc3[nH]2)cc1 | 212 °C
* CC(C)(C)c1ccc(C[C@@H](NC(=O)c2cccc3c(F)cccc23)[C@@H](O)c2ccc(F)cc2)cc1 (racemic) | 148 to 149 °C
* CC(C)(C1OCCO1)C(O)C(Cc1ccc(Cl)cc1Cl)n1cncn1 (stereo not given) | 178 to 181 °C
* CO[C@@H]1CNCC[C@@H]1NC(=O)c1cc(Cl)c(N)c2c1OC(C)(C)C2 (relative stereo) | 179 °C
* COc1ccc(Cc2cnc(N)nc2N)cc1 | 206 to 209 °C
* CC(C)(C)c1cc(C2=CCOCC2)c(O)c(C(C)(C)C)c1 | 135 to 139 °C
* CCCCCCCCCCCCS(=O)(=O)N1CCCSC1=C[N+](=O)[O-] | 116 to 117 °C
* Ic1cccc(-c2nnc(-c3ccc4ccccc4c3)o2)c1 | 156 to 158 °C
* CCCCCCOc1ccccc1C(=N)OCC | 68 to 70 °C
* CCN(CC)c1ccc(C=NNC(=O)c2ccc(O)cc2)cc1 | 228 °C
* Cc1ccc2c3c(ccc2n1)OC[C@H](CNC[C@@H]1CCc2[nH]c4ccc(F)cc4c2C1)O3 | 89 to 93 °C
* CCOC(=O)c1cc2c3ccccc3n(C)c2s1 | 99 to 100 °C
* Cn1c(S(C)(=O)=O)nc2ccccc21 | 131 to 132 °C
* CCCCOc1cc(/C=C(\OCC)C(=O)O)ccc1OCCc1ccc(OS(=O)(=O)CCCC)cc1 | 96 °C
* CCOC(=O)C1=C(C)NC(=O)N(CCCN(C)Cc2ccccc2)C1c1cccc(Cl)c1Cl (stereo not given) | 154 to 156 °C
* O=C(O)CCNC(=O)c1cccc(NC(=O)c2csc(NC(=O)NCc3ccccc3)n2)c1 | 157 °C
* CC(C)(O)CCOc1c(-c2ccc(S(N)(=O)=O)cc2)cnn(-c2ccc(F)c(F)c2)c1=O | 181 °C
* O[C@H]1c2ccc(OCc3ccccc3)cc2OC[C@H]1Oc1cccnc1 (relative stereo) | 73 to 75 °C
* CCCCSCC(=O)c1cc2c(cc1Cl)n(C)c(=O)n2C | 66 to 68 °C
* CC(C)(C)c1ccc(OCCC(=O)O)c(C(C)(C)C)c1 | 105 to 106 °C
* CC(C)(C)c1cc(CCc2ccccc2NC(=O)NCc2ccncc2)cc(C(C)(C)C)c1O | 214 to 215 °C
* C#CCC(NC(=O)c1ccc(C)cc1)C(C)=O (stereo not given) | 65 to 67 °C
* COC(=O)c1ccc(NC(=O)C(N)c2ccc3c(c2)C(C)(C)CCC3(C)C)s1 (stereo not given) | 110 to 112 °C
* O=C(O)Cc1cc(Br)c(-c2ccc(Cl)cc2)s1 | 136 to 137 °C
* CCc1c(C)c2c(c(O)c1C/C=C(\C)CCC(=O)OC)C(=O)OC2 | 116 °C
* COP(=O)(COS(=O)(=O)c1c(C)cccc1Cl)OC | 55 to 57.5 °C
* Fc1ccc(-c2cc3[nH]ccn3n2)cc1 | 225 to 227 °C
* O=C(O)CCc1ccc(Cl)cc1F | 83 to 85 °C
* Cc1cc(C)cc(C(=O)c2c(C(C)C)c(=O)[nH]c(=O)n2Cc2cc(C)nc(N3C(=O)c4ccccc4C3=O)c2)c1 | 310 to 311 °C
* CC(C)(O)C#Cc1ccc2[nH]ccc2c1 | 119 to 123 °C
* O=C1Cc2c(ccc3ccccc23)C(c2ccccc2F)N1 (stereo not given) | 259 to 261 °C
* CCCCCCCCCCCCCOc1ccc(C(C)=O)o1 | 61 to 62 °C
* c1ccc2c3c([nH]c2c1)CCS3 | 152 to 155 °C
* Cc1cc(I)ccc1NC1=CC2=NCN(C)C2=CC1(F)C(=O)NOCC(O)CO (stereo not given) | 212 to 213 °C
* CN1CCC2(C)c3cc(O)cc(Br)c3N(C)C12 (stereo not given) | 175 to 177 °C
